These data points were gathered from patent US12497460B2.

System Name: T1, HEK293.Myc.hMSR1 cells (human MSR1) (Homo sapiens, UniProt P21757)
T1 construct: expressed in transfected cells; host or cells: HEK293 (lentiviral transduction, hygromycin selection)
T1 sequence (P21757 1-451): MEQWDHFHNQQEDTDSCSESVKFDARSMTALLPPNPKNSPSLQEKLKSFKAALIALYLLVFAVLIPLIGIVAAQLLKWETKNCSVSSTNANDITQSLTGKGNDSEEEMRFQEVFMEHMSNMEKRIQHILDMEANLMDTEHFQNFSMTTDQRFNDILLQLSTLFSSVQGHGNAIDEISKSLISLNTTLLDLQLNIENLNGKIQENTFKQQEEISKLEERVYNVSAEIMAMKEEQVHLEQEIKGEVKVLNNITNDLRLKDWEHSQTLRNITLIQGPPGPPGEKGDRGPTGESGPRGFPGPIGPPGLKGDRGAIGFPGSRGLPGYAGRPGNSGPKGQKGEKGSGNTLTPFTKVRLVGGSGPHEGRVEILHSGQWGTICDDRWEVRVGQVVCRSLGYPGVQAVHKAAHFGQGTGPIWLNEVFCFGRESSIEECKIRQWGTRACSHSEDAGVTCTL
Run Description: Electrochemiluminescence antibody binding assay on MSR1-expressing cells
Type: cell-based
Reported Ratio of 11 nM Antibody Binding Signal (RLU) to isotype control, HEK293.Myc.hMSR1 values are given for each entry in this list.
No unit in the answer, only the number.

Molecule	Numeric Value
H1H21227N-N297Q: "modified versions of 21227N (H1H21227N-N297Q and H1H21227N-N297D)"; anti-MSR1 antibody "with a N297Q single point mutation" (antibody, V domains shown) VH: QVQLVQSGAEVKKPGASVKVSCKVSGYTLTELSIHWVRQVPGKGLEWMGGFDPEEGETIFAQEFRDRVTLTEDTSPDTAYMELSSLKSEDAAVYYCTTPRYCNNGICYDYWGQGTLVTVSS VL: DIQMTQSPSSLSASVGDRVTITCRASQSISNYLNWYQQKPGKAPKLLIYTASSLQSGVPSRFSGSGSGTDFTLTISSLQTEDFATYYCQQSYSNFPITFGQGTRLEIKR	37
H1H21231N: "anti-MSR1 antibodies ... (21227N, 21231N, 21234N) were produced with the original human Fcγ portion"; "H1H" = human IgG1 Fc (antibody, V domains shown, human IgG1 Fc, "anti-MSR1 antibodies ; (21227N, 21231N, 21234N) were produced with the original human Fcγ portion"; "H1H" = human IgG1 Fc) VH: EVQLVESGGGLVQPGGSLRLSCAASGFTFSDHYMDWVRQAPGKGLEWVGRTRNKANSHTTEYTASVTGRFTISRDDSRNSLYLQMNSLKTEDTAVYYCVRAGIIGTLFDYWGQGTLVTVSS VL: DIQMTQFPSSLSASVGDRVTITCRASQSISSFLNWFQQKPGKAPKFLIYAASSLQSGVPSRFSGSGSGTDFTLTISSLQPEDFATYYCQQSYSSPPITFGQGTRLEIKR	61
H1H21227N-N297D: "The 21227N antibody was also produced as a third version with a N297D mutation" (antibody, V domains shown) VH: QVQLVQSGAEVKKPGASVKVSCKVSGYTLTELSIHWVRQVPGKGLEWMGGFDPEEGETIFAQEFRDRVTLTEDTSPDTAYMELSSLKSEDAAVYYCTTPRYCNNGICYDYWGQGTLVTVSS VL: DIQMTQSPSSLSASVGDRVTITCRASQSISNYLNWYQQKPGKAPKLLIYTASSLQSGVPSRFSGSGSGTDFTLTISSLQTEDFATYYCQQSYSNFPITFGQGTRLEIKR	34

Now consider a different molecule.
Please report the recorded Ratio of 11 nM Antibody Binding Signal (RLU) to isotype control, HEK293.Myc.hMSR1 for H1H21227N: "anti-MSR1 antibodies ... (21227N, 21231N, 21234N) were produced with the original human Fcγ portion"; "H1H" = human IgG1 Fc (antibody, V domains shown, human IgG1 Fc, "anti-MSR1 antibodies ; (21227N, 21231N, 21234N) were produced with the original human Fcγ portion"; "H1H" = human IgG1 Fc) VH: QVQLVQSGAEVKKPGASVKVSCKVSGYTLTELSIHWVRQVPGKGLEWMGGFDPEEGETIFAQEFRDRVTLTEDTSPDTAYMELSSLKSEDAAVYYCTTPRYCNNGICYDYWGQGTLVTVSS VL: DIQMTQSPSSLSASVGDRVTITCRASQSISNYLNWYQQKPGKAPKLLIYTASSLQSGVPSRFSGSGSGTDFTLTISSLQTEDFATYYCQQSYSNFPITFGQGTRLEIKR . 37
